Test system: Ba/F3 cells harboring EGFR_L858R/T790M/C797S
procedure details: Cell viability assay
Type: cell-based, mouse
test parameters: Mus musculus, BaF3, 72 h, read-out: Cell viability IC50
measurement type: pIC50
Just so you know, pIC50 here is -log10 of the concentration in molar units; reply with that number alone.

### Prompt What value of pIC50 has been reported for the following molecule? CO[C@@H]1CCN(c2nccc(Nc3cc4c(C(C)C)ccc(N5C[C@H](CS(C)(=O)=O)[C@H]5C)c4cn3)n2)C[C@@H]1F
### Response 8.22

* * *

Tested on: Ba/F3 cells harboring EGFR_L858R/T790M/C797S
procedure details: Cell viability assay
Format: cell-based, mouse
test parameters: read-out: Cell viability IC50; Ba/F3 EGFR_L858R/T790M/C797S; 72 h post-treatment
pIC50: −log10 of the molar value.
measurement type: pIC50

### Prompt Given C=CC(=O)Nc1cc(Nc2nccc(-c3cn(C)c4ccccc34)n2)c(OC)cc1N(C)CCN(C)C [Osimertinib, osimertinib, reference compound] , state its recorded pIC50.
### Response < 6.00
